// data source = patent US9481654B2

# Test system: IL-4 stimulated CD23 upregulation in human Ramos B cells (JAK-1/JAK-3, Stat-6)
# Test protocol: Assay for Ramos B-Cell Line Stimulated with IL-4 (CD23 upregulation, FACS)
# Type: cell-based
# Run conditions: Table III Example 3
pIC50: −log10 of the molar value.
Measured pIC50 values are reported for all entries that follow.
Metric: pIC50

compound=CCS(=O)(=O)NCc1ccc(Nc2nc(Nc3ccc(S(N)(=O)=O)cc3)ncc2C)cc1 measured_value=7.13
compound=COCCCNS(=O)(=O)c1cccc(Nc2ncc(C)c(Nc3ccc(CNS(=O)(=O)C4CC4)cc3)n2)c1 measured_value=7.59
compound=NS(=O)(=O)c1cc(Nc2ncc(F)c(Nc3ccc(CNS(=O)(=O)C4CC4)cc3)n2)cc(S(N)(=O)=O)c1 measured_value=5.96
compound=Cc1cnc(Nc2cccc(S(=O)(=O)NCc3ccccc3)c2)nc1Nc1cccc(CNS(=O)(=O)C2CC2)c1 measured_value=6.52
compound=Cc1cnc(Nc2ccc(S(N)(=O)=O)cc2)nc1Nc1ccc(CNS(=O)(=O)c2cccnc2)cc1 measured_value=6.25
compound="CCCC(=O)NS(=O)(=O)c1cccc(Nc2ncc(C)c(Nc3cccc(CN(C(=O)CCC)S(=O)(=O)C4CC4)c3)n2)c1 [Compound I-222]" measured_value=5.52
compound=CCS(=O)(=O)NCCc1ccc(Nc2nc(Nc3ccc(C)c(S(N)(=O)=O)c3)ncc2F)cc1 measured_value=6.83

* * *

# Tested on: IL-4 stimulated CD23 upregulation in human Ramos B cells (JAK-1/JAK-3, Stat-6)
# Test protocol: Assay for Ramos B-Cell Line Stimulated with IL-4 (CD23 upregulation, FACS)
# Assay type: cell-based
# Run conditions: Table III Example 3
pIC50: −log10 of the molar value.
Class Criterion met: pIC50 at least 7. Class Criterion not met: pIC50 below 7.

molecule="CNS(=O)(=O)c1cc(Nc2ncc(C)c(Nc3ccc(CNS(=O)(=O)C4CC4)cc3)n2)ccc1C [Compound I-185]" category_label="Criterion met"
molecule="Cc1cnc(Nc2ccc(S(=O)(=O)NC3CCN(C)CC3)cc2)nc1Nc1cccc(CNS(=O)(=O)C2CC2)c1 [Compound I-159]" category_label="Criterion not met"
molecule="COCCCNS(=O)(=O)c1cc(Nc2ncc(C)c(Nc3ccc(CNS(=O)(=O)C4CC4)cc3)n2)ccc1C [Compound I-191]" category_label="Criterion met"
molecule="CCS(=O)(=O)NCc1ccc(Nc2nc(Nc3ccc(C)c(S(N)(=O)=O)c3)ncc2C)cc1 [Compound I-22]" category_label="Criterion met"
molecule="NS(=O)(=O)c1ccc(Nc2ncc(F)c(Nc3ccc4c(c3)CN(S(=O)(=O)C3CC3)C4)n2)cc1 [II-6]" category_label="Criterion not met"
molecule="CCC(=O)NS(=O)(=O)c1cc(Nc2ncc(F)c(Nc3ccc(CN(C(=O)CC)S(=O)(=O)C4CC4)cc3)n2)ccc1C [Compound I-60]" category_label="Criterion not met"
molecule="CCCC(=O)NS(=O)(=O)c1cccc(Nc2ncc(C)c(Nc3cccc(CNS(=O)(=O)C4CC4)c3)n2)c1 [Compound I-223]" category_label="Criterion not met"
molecule="CC(=O)NS(=O)(=O)c1ccc(Nc2ncc(C)c(Nc3ccc(CN(C(C)=O)S(=O)(=O)C4CC4)cc3)n2)cc1 [Compound I-194]" category_label="Criterion not met"
molecule="Cc1cnc(Nc2ccc(S(=O)(=O)NC(=O)C(C)C)cc2)nc1Nc1ccc(CN(C(=O)C(C)C)S(=O)(=O)C2CC2)cc1 [Compound I-199]" category_label="Criterion not met"
molecule="Cc1cnc(Nc2cccc(S(N)(=O)=O)c2)nc1Nc1ccc(CNS(=O)(=O)CC(F)(F)F)cc1 [Compound I-97]" category_label="Criterion met"
molecule="Cc1cnc(Nc2cccc(S(=O)(=O)Nc3cccnc3)c2)nc1Nc1ccc(CNS(=O)(=O)C2CC2)cc1 [Compound I-174]" category_label="Criterion not met"
molecule="NS(=O)(=O)c1cccc(Nc2ncc(Cl)c(Nc3ccc(CNS(=O)(=O)C4CC4)cc3)n2)c1 [Compound I-114]" category_label="Criterion met"
molecule="Cc1ccc(Nc2ncc(F)c(Nc3cccc(CNS(=O)(=O)C4CC4)c3)n2)cc1S(N)(=O)=O [Compound I-34]" category_label="Criterion not met"
molecule="CCCC(=O)NS(=O)(=O)c1cccc(Nc2ncc(C)c(Nc3cccc(CN(C(=O)CCC)S(=O)(=O)C4CC4)c3)n2)c1 [Compound I-203]" category_label="Criterion not met"
molecule="CNS(=O)(=O)c1ccc(Nc2ncc(C)c(Nc3ccc(CNS(=O)(=O)C4CC4)cc3)n2)cc1 [Compound I-163]" category_label="Criterion met"
molecule="Cc1cnc(Nc2cccc(S(N)(=O)=O)c2)nc1Nc1ccc2c(c1)CCN(S(=O)(=O)C1CC1)C2 [II-2]" category_label="Criterion met"

* * *

# System: IL-4 stimulated CD23 upregulation in human Ramos B cells (JAK-1/JAK-3, Stat-6)
# Test protocol: Assay for Ramos B-Cell Line Stimulated with IL-4 (CD23 upregulation, FACS)
# Type: cell-based
# Run conditions: Table III Example 3
pIC50: −log10 of the molar value.
Metric: pIC50

compound_string=CCS(=O)(=O)NCc1cccc(Nc2nc(Nc3ccc(C)c(S(N)(=O)=O)c3)ncc2F)c1 measured_value=6.87
compound_string=CCS(=O)(=O)NCc1cccc(Nc2nc(Nc3cccc(S(N)(=O)=O)c3)ncc2F)c1 measured_value=6.77
compound_string=CCS(=O)(=O)NCCc1ccc(Nc2nc(Nc3ccc(S(N)(=O)=O)cc3)ncc2F)cc1 measured_value=6.84
compound_string=Cc1ccc(Nc2ncc(C)c(Nc3ccc(CNS(=O)(=O)C4CC4)c(Cl)c3)n2)cc1S(N)(=O)=O measured_value=7.02
compound_string=Cc1cnc(Nc2cccc(S(=O)(=O)NCC3CC3)c2)nc1Nc1ccc(CNS(=O)(=O)C2CC2)cc1 measured_value=7.59
compound_string=CCC(=O)N(Cc1ccc(Nc2nc(Nc3ccc(S(N)(=O)=O)cc3)ncc2C)cc1)S(=O)(=O)C1CC1 measured_value=6.88
compound_string=C#CCNS(=O)(=O)c1cc(Nc2ncc(C)c(Nc3ccc(CNS(=O)(=O)C4CC4)cc3)n2)ccc1C measured_value=7.36
compound_string=Cc1cnc(Nc2ccc(S(=O)(=O)NC3CCN(C)CC3)cc2)nc1Nc1ccc(CNS(=O)(=O)C2CC2)cc1 measured_value=6.45
compound_string=CCCN(Cc1ccc(Nc2nc(Nc3ccc(S(N)(=O)=O)cc3)ncc2C)cc1)S(=O)(=O)C1CC1 measured_value=7.01
compound_string=NS(=O)(=O)c1cccc(Nc2ncc(F)c(Nc3ccc(CNS(=O)(=O)C4CC4)cc3)n2)c1 measured_value=7.23
compound_string=Cc1ccc(Nc2ncc(F)c(Nc3cccc(CS(=O)(=O)NC4CCN(C)CC4)c3)n2)cc1S(N)(=O)=O measured_value=5.53
compound_string=NS(=O)(=O)c1ccc(Nc2ncc(F)c(Nc3ccc(CNS(=O)(=O)CC(F)(F)F)cc3)n2)cc1 measured_value=6.58
compound_string=Cc1cnc(Nc2cccc(S(=O)(=O)NC(=O)[C@@H](NC(=O)OCc3ccccc3)C(C)C)c2)nc1Nc1cccc(CNS(=O)(=O)C2CC2)c1 measured_value=5.11
compound_string=CCCN(Cc1ccc(Nc2nc(Nc3ccc(C)c(S(N)(=O)=O)c3)ncc2F)cc1)S(=O)(=O)CC measured_value=6.83

* * *

Measured pIC50 values are reported for all entries that follow.
# System: IL-4 stimulated CD23 upregulation in human Ramos B cells (JAK-1/JAK-3, Stat-6)
# Test protocol: Assay for Ramos B-Cell Line Stimulated with IL-4 (CD23 upregulation, FACS)
# Assay type: cell-based
# Run conditions: Table III Example 3
pIC50: −log10 of the molar value.
Metric: pIC50

compound_string=Cc1cnc(Nc2cccc(S(=O)(=O)Nc3ccccc3)c2)nc1Nc1cccc(CNS(=O)(=O)C2CC2)c1 subject_of_test="IL-4 stimulated CD23 upregulation in human Ramos B cells (JAK-1/JAK-3, Stat-6)" metric=pIC50 measured_value=6.57
compound_string=Cc1cnc(Nc2cccc(S(=O)(=O)NC(=O)C(C)C)c2)nc1Nc1cccc(CN(C(=O)C(C)C)S(=O)(=O)C2CC2)c1 subject_of_test="IL-4 stimulated CD23 upregulation in human Ramos B cells (JAK-1/JAK-3, Stat-6)" metric=pIC50 measured_value=5.69
compound_string=NS(=O)(=O)c1ccc(Nc2ncc(F)c(Nc3cccc(CNS(=O)(=O)C4CC4)c3)n2)cc1 subject_of_test="IL-4 stimulated CD23 upregulation in human Ramos B cells (JAK-1/JAK-3, Stat-6)" metric=pIC50 measured_value=6.44
compound_string=Cc1cnc(Nc2cccc(S(=O)(=O)NC(=O)[C@H](Cc3ccccc3)NC(=O)OCc3ccccc3)c2)nc1Nc1cccc(CNS(=O)(=O)C2CC2)c1 subject_of_test="IL-4 stimulated CD23 upregulation in human Ramos B cells (JAK-1/JAK-3, Stat-6)" metric=pIC50 measured_value=5.48
compound_string=CCCNS(=O)(=O)c1cc(Nc2ncc(C)c(Nc3ccc(CNS(=O)(=O)C4CC4)cc3)n2)ccc1C subject_of_test="IL-4 stimulated CD23 upregulation in human Ramos B cells (JAK-1/JAK-3, Stat-6)" metric=pIC50 measured_value=7.14
compound_string=CCS(=O)(=O)NCCc1ccc(Nc2nc(Nc3cccc(S(N)(=O)=O)c3)ncc2C)cc1 subject_of_test="IL-4 stimulated CD23 upregulation in human Ramos B cells (JAK-1/JAK-3, Stat-6)" metric=pIC50 measured_value=7.34
compound_string=NS(=O)(=O)c1cccc(Nc2ncc(F)c(Nc3ccc4c(c3)CN(S(=O)(=O)C3CC3)C4)n2)c1 subject_of_test="IL-4 stimulated CD23 upregulation in human Ramos B cells (JAK-1/JAK-3, Stat-6)" metric=pIC50 measured_value=6.16
